Target: Menin-MLL (Homo sapiens, UniProt O00255)
Construct: His-Menin (M1-L615 end); purchased BIORTUS BP9210
Sequence (O00255 1-615 isoform O00255-1): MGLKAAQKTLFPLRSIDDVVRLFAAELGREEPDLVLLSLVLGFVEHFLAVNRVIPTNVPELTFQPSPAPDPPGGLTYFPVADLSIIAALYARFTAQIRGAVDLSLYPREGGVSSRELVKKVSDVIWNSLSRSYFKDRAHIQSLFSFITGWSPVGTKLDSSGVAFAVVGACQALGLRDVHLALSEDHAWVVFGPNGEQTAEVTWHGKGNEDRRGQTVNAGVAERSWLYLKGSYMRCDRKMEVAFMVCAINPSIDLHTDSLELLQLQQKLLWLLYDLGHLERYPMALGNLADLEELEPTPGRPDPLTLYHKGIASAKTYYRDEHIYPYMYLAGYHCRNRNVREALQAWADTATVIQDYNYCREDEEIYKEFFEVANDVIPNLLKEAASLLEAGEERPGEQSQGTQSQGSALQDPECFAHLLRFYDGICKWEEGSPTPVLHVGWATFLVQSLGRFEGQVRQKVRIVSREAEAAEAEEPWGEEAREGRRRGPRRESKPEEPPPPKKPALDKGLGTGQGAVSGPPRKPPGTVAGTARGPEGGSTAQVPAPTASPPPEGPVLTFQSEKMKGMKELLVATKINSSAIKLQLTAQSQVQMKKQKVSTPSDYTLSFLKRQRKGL
Assay: Inhibitory activity against Menin-MLL binding (fluorescence polarization)
Conditions: Menin-MLL IC50, fluorescence polarization; 150 nM His-Menin, 15 nM FITC-MLL; 25°C for 60 min
pIC50: −log10 of the molar value.
result_type: pIC50

| compound | result_type | number |
| --- | --- | --- |
| CCN(C(=O)c1cc(F)ccc1-c1cc(N2CCC(NC[C@H]3CC[C@H](N4CCOC4=O)CC3)CC2)cc2c1cnn2C)C(C)C | pIC50 | 6.81 |
| Cc1nc(F)c2c(-c3ccc(F)cc3C(=O)N3CCOC[C@H]3C)cc(C3CN([C@H](CCCN4CCN(CC(F)F)CC4)C(C)C)C3)cn12 | pIC50 | 8.34 |
| CCS(=O)(=O)N[C@H]1CC[C@H](CN2CC(c3cc(-c4ccc(F)cc4C(=O)N4[C@H](C)COC[C@H]4C)c4cnn(C)c4c3)C2)CC1 | pIC50 | 7.49 |
| COCCN(C(=O)c1cc(F)ccc1-c1cc(C2CN(C(CCCN3C[C@H]4C[C@@H]3CO4)C(C)C)C2)cn2c(C)ncc12)C(C)C (stereo partly drawn) | pIC50 | 8.30 |
| CCN(C(=O)c1cc(F)ccc1-c1cc(C2CN([C@H](CN3CCN(C[C@H](O)CO)CC3)C(C)C)C2)cc2c1cnn2C)C(C)C | pIC50 | 8.05 |
| CCN(C(=O)c1cc(F)ccc1-c1cc(N2CCN(C(=O)[C@@H]3CCC(C)(C)N3)CC2)cn2c(C)nc(Cl)c12)C(C)C | pIC50 | 7.42 |

* * *

target: Menin-MLL (Homo sapiens, UniProt O00255); construct: His-Menin (M1-L615 end); purchased BIORTUS BP9210; test: Inhibitory activity against Menin-MLL binding (fluorescence polarization); settings: fluorescence polarization; 150 nM His-Menin, 15 nM FITC-MLL; 25°C for 60 min; read-out: Menin-MLL IC50

| compound | u | IC50 |
| --- | --- | --- |
| CCN(C(=O)c1cc(F)ccc1-c1cc(C2CN([C@H](CCCN3CC4(COC4)C3)C(C)C)C2)cn2c(C)ncc12)C(C)C [Example 388] | nM | 2.1 |
| Cc1ncc2c(-c3ccc(F)cc3C(=O)N3CCOC[C@H]3C)cc(C3CN([C@H](CCCN4CCN(CC(F)F)CC4)C(C)C)C3)cn12 [Example 364] | nM | 5.1 |
| CCN(C(=O)c1cc(F)ccc1-c1cc(C2CN([C@H](CCCN3CCC(OC)CC3)C(C)C)C2)cc2c1cnn2C)C(C)C [Example 399-2] | nM | 3.3 |
| CCNC(=O)N1CCC([C@@H](C)N2CC(c3cc(-c4ccc(F)cc4C(=O)N(CC)C(C)C)c4c(F)nc(C)n4c3)C2)CC1 [Example 282-1] | nM | 9 |
| CCN(C(=O)c1cc(F)ccc1-c1cc(C2CN([C@H](CCCN3CCN(C)[C@H](CO)C3)C(C)C)C2)cn2c(C)ncc12)C(C)C [Example 507] | nM | 1 |
| Cc1nc(F)c2c(-c3ccc(F)cc3C(=O)N3CCOC[C@H]3C)cc(C3CN([C@H](CCCN4CCN(C(=O)C5CC5)CC4)C(C)C)C3)cn12 [Example 341] | nM | 10 |
